Tested on: Ramos B cells with beta-lactamase reporter gene under control of an NFAT response element
Assay: NFAT-bla RA1 Reporter Assay (Ramos-NFAT)
Format: cell-based, human
Conditions: Homo sapiens, Ramos, read-out: IMM Ramos-NFAT (IC50)
Here, each record is paired with measured IC50 data.
Form entry: value (nM) — number only.

Consider the following illustrative entries.
CN1CCC(O)(c2ccc(Nc3nc(N4CCC[C@@H](N5CCCC5=O)C4)c(F)cc3C(N)=O)cc2)C(C)(C)C1 (stereo partly drawn) [Example 568]; 120
CN1CCCC(c2ccc(Nc3nc(N4CCC[C@@H](NC(=O)Nc5nnc(C(C)(C)C)s5)C4)c(F)cc3C(N)=O)cc2)C1 (stereo partly drawn) [Example 561]; 140

Note: attention shifts to another entry.
Query: IC50; subject: CN1CCN(c2ccc(Nc3nc(N4CCCCC4)c(F)cc3C(N)=O)cc2)CC1 [Example 393]
120
